tested on: Neuregulin-1 EGF-like domain; assay: small molecules binding NRG1 EGF domain – biochemical, small-molecule microarray, 635 nm fluorescence, primary screen (AID 1081); details: higher = more signal;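 further: binding of the protein to compounds printed on small-molecule microarray slides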
Output rule met for composite z-score not less than 1; output rule not met otherwise.

Check the entry [N-]=[N+]=NCc1ccccc1C[C@]1(C(=O)NCCN2CCOCC2)COC(c2ccc(OCCCO)cc2)=N1 : does composite z-score equal or exceed 1?
rule met

In plain terms: is recorded composite z-score at least 1 for OCc1ccc(-c2cc[n+](Cc3cccc(OC(F)(F)F)c3)cc2)cc1 ?
rule not met

Confirm if composite z-score reported for the compound COCCCNC(=O)[C@@]1(Cc2ccccc2CN=[N+]=[N-])N=C(c2ccc(OCCCO)cc2)O[C@H]1c1ccccc1N=[N+]=[N-] is 1 or above.
rule met

Confirm if composite z-score reported for the compound C=CCOC(=O)[C@@H]1[C@H]2C(=O)O[C@H](c3ccccc3)[C@H](c3ccccc3)N2[C@H](c2ccc(OCCOC(=O)[C@H]3C[C@H]4C(=O)N[C@@H](Cc5ccccc5)C(=O)N4[C@H]3c3cccc(OCCO)c3)cc2)[C@@]12C(=O)Nc1ccc(I)cc12 is 1 or above.
rule met

Test whether the compound CC(C)C[C@@H]1NC(=O)[C@@]23C(=O)N[C@@H](Cc4ccccc4)C2[C@H](C)[C@@]2(C)O[C@H]2C3/C=C/C/C=C\CNC(=O)[C@@H]2CCCN2C1=O (stereo not given in full) records composite z-score of 1 or higher.
rule not met

Decide: is the reported value of composite z-score for CCCNC(=O)[C@@]1(Sc2ccc(C)cc2)CC(=O)N(Cc2ccccc2)[C@@H]1c1ccc(CO)cc1I equal to or greater than 1?
rule met

Identify whether the reported composite z-score of the following compound is 1 or greater: COCCOC(=O)N1C(=O)[C@@]2(c3ccccc31)[C@H](c1ccc(OCCO)cc1)N1[C@H](c3ccccc3)[C@H](c3ccccc3)OC(=O)[C@H]1[C@@H]2C(=O)NC[C@H](O)c1ccccc1
rule met

Is composite z-score at least 1? Consider C=C(C(=O)CC[C@H](OC(=O)c1cccnc1)c1ccc(OCCO)cc1)C(C)C
rule met

Identify whether the reported composite z-score of the following compound is 1 or greater: CC(C)CN1C(=O)[C@@]2(Cc3ccccc31)c1ccccc1C(=O)N(Cc1ccccc1)[C@H]2c1ccc(CO)cc1
rule not met

For this compound, is measured composite z-score 1 or higher? CCOC(=O)C[C@H]1[C@H](OC(=O)Cc2ccc3c(c2)OCO3)[C@@H](NC(=O)c2ccccc2)c2cc(OCCCO)ccc2N1C(=O)c1ccccc1
rule not met

Record Cc1cc(C)c(C(O)C2C=CC3C(=O)N(c4ccccc4)C(=O)C3N2Nc2ccccc2)c(C)c1 (stereo not given) ; criterion: composite z-score no lower than 1. Met?
rule met

Identify whether the reported composite z-score of the following compound is 1 or greater: CN1C(=O)C2C=CC(C(O)C3CCCCC3)N(N(c3ccccc3)c3ccccc3)C2C1=O (stereo not given)
rule not met

Record CC(C)c1ccc(NN2C(C(O)c3ccccn3)C=CC3C(=O)N(c4ccccc4)C(=O)C32)cc1 (stereo not given) ; criterion: composite z-score no lower than 1. Met?
rule met

Is reported composite z-score greater than or equal to 1 here: C=CC[C@@]1(C(=O)NCC(O)CO)N=C(c2ccc(OCCCO)cc2)O[C@@H]1c1ccccc1 (stereo not given in full)
rule not met

Kindly determine if composite z-score recorded for N#Cc1ccc(NN2C(C(O)c3ccccc3)C=CC3C(=O)N(c4ccccc4)C(=O)C32)cc1 (stereo not given) is above or exactly 1.
rule met

Identify whether the reported composite z-score of the following compound is 1 or greater: CC(C)NC(=O)[C@@]1(Cc2ccccc2I)c2ccccc2C(=O)N(Cc2ccccc2C(F)(F)F)[C@H]1c1ccc(CO)cc1
rule met

# bool: composite z-score of COC(=O)[C@@]1(Cc2ccccc2)[C@H]2c3cc(C(=O)N4CCCC4)n(CCO)c3C[C@H]2CN1C(=O)c1ccccc1 >= 1
rule met

Please check the record O=C1OCCC=C[C@H]2OC34C=CCN(Cn5nnc6ccccc65)C(=O)[C@H]3N(CCCCCO)C(=O)[C@@H]4C12 (stereo not given in full) and state if its composite z-score is at or above 1.
rule met

Say whether COc1ccccc1CN1C(=O)c2ccccc2[C@@H](C(=O)NCC(C)C)[C@@H]1c1ccc(CO)cc1 shows composite z-score of 1 or more.
rule not met

Hi, just wondering whether CN(C)C(=O)[C@@]1(CCC(=O)OC(C)(C)C)COC(c2ccc(OCCCO)cc2)=N1 shows composite z-score of 1 or higher.
rule met
